Compiled IC50 measurements on MERTK (Homo sapiens) taken from the literature.

*Q* Identify the measured IC50 of `Cn1cc(-c2cnc(N)c(C(=O)N[C@@H]3CCN(C(=O)c4ccc(-c5ccc(C(C)(C)N6CCNCC6)cc5)cc4)C3)c2)cn1` for MERTK (Homo sapiens).
*A* 10 to 100 nM

*Q* Here is the next compound: `CC(=O)Nc1cc(Oc2ccc(NC(=O)c3c4n(n(-c5ccccc5)c3=O)CCC4)cc2)ccn1`
*A* 35 nM

*Q* Consider next the compound `CNS(=O)(=O)c1ccc(-c2cc([C@H]3CC[C@H](O)CC3)n3nc(N[C@@H](C)COC(F)F)ncc23)cn1` in the same way.
*A* ≤ 100 nM

*Q* Same for `CC[C@H](C)Nc1ncc2c(=O)n(-c3ccc(N)cc3)cc([C@H]3CC[C@H](O)CC3)c2n1`
*A* ≤ 100 nM
